Target: Fyn (UniProt P06241)
Sequence (P06241 whole entry, looked up): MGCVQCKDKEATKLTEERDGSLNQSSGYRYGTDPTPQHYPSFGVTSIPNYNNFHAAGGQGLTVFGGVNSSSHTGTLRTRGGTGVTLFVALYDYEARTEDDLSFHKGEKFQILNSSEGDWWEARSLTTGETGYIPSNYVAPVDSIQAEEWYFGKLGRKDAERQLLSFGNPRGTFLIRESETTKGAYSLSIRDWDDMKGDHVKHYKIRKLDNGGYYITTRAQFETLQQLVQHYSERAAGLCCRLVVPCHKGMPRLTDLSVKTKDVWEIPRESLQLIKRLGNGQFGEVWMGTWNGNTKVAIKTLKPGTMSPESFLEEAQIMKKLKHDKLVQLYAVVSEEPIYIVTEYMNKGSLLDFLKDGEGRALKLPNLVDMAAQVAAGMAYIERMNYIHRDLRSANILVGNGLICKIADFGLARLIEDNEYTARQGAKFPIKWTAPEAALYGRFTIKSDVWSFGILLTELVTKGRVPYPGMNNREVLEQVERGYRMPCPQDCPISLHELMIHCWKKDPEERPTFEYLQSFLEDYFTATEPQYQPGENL
Experiment: phosphorylation enrichment, bacterial display (enrichment ratio); higher = better substrate or ligand; peptides without Tyr show the background

{"columns": ["Chain Sequence", "phosphorylation enrichment"],
 "data": [
  ["GGQSVYHVHLH [HINT1_Y109]", 0.865],
  ["FRDALYKFIVD [PHEX_Y250_M253I_YF]", 0.508],
  ["NVLPEYKLQAP [KCNH2_Y388_D383N]", 0.508],
  ["DTLMEYLENPK [CYCS_Y68]", 0.484],
  ["TRSFDYTEGGD [FGF7_Y58_M59T_YF]", 0.513],
  ["RLPSGYGLAYR [DLK1_Y262]", 0.295],
  ["QCQLKYSETPF [SIX6OS1_Y129_Y125C]", 0.558]
]}

---

The entries below are paired with their reported phosphorylation enrichment.
Tested on: c-Abl (mouse)
Assay: phosphorylation enrichment, bacterial display (enrichment ratio); higher = better substrate or ligand; peptides without Tyr show the background

{"columns": ["Chain Sequence", "phosphorylation enrichment"],
 "data": [
  ["GGSDRYGSLRP [MYLK_Y846]", 0.495],
  ["GQLIVYAPPEW [CNTN6_Y315_F314V]", 9.23],
  ["PRIHSYRGHLW [VHL_Y112_R107P]", 1.09],
  ["LKRIAYFLCLL [LGI1_Y21]", 0.821],
  ["VGTKRYMAPKV [ACVRL1_Y375_E379K]", 0.625],
  ["IHFPPYTDWNQ [ALDH3B2_Y365_YF]", 0.687]
]}

---

Biological target: c-Src SH2;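 further: peptide library displayed on the E. coli surface as eCPX fusions, selected cells deep-sequenced, score is each peptide's frequency after selection divided by its frequency in the input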
Experiment: SH2 binding enrichment of the phosphorylated peptide, bacterial display (enrichment ratio); higher = better substrate or ligand; peptides without Tyr show the background
Could you label it TRUE if measured SH2 binding enrichment is 0.7 or higher, and FALSE otherwise?

{"columns": ["Chain Sequence", "Test System", "Label"],
 "data": [
  ["RPFFLYVAFHN [SGSH_Y174_D179N]", "c-Src SH2", "FALSE"],
  ["IYHLSYLHNCE [PDE6B_Y227]", "c-Src SH2", "TRUE"],
  ["RIFDFYSARKT [STOX1_Y858_A863T_YF]", "c-Src SH2", "FALSE"],
  ["DSIRDYEDGTE [CLNS1A_Y214_M218T]", "c-Src SH2", "FALSE"],
  ["IDPFTYTPFGS [CYP3A4_Y432_I431T_YF]", "c-Src SH2", "FALSE"],
  ["FNSLPYQVPTS [CALCOCO2_Y358]", "c-Src SH2", "TRUE"],
  ["AGLEDYDRLRP [RAC3_Y64_Q61L]", "c-Src SH2", "FALSE"],
  ["MKSIKYMDKEI [CCDC60_Y41]", "c-Src SH2", "FALSE"],
  ["KIMVIYDGACQ [VWDE_Y1035_T1032M]", "c-Src SH2", "FALSE"],
  ["IQSAKYDMAED [TTC21B_Y1213]", "c-Src SH2", "TRUE"],
  ["LKKKQYTSIHH [APP_Y728]", "c-Src SH2", "TRUE"],
  ["TRSFDYTEGGD [FGF7_Y58_M59T_YF]", "c-Src SH2", "FALSE"],
  ["FGMSTYITRED [FNDC3B_Y180_YF]", "c-Src SH2", "FALSE"],
  ["TACNPYKPPGP", "c-Src SH2", "TRUE"],
  ["QYPDIYAREEV [CRX_Y67_V66I]", "c-Src SH2", "FALSE"],
  ["PKGTGYIKTEL [STAT1_Y701]", "c-Src SH2", "FALSE"],
  ["IRTIDYRFTVS [IDS_Y497_W502S_YF]", "c-Src SH2", "TRUE"],
  ["IGEGTYRQVFK [CDK13_Y716_G717R_YF]", "c-Src SH2", "FALSE"],
  ["ADEQIYWQIAA [CSKtide_2014]", "c-Src SH2", "FALSE"],
  ["VDSGVYAVPPP [BCAR1_Y410]", "c-Src SH2", "FALSE"],
  ["DEFLEYRRIVG [FAM221A_Y20_YF]", "c-Src SH2", "FALSE"],
  ["TEAGNYKLCFD [TMED1_Y103_D102N]", "c-Src SH2", "FALSE"],
  ["IRRQGYSHRIL [MYO3B_Y993]", "c-Src SH2", "FALSE"],
  ["SPPILYSFFLN [FCRL6_Y239_D244N_YF]", "c-Src SH2", "TRUE"],
  ["GIVEDYRPPLF [ACVRL1_Y421_F425L_YF]", "c-Src SH2", "FALSE"],
  ["RDLTDYLMKIL [ACTA1_Y190]", "c-Src SH2", "TRUE"],
  ["ELTAKYLNFFR [P3H4_Y181_Q186R_YF]", "c-Src SH2", "TRUE"],
  ["GHLFAYDWISI [BEST1_Y227_YF]", "c-Src SH2", "TRUE"],
  ["NAPNSYGRRLI [CDKN2A_Y44_P48L]", "c-Src SH2", "FALSE"],
  ["DLEKTYNTFRS [B4GALNT2_Y538_A533D_YF]", "c-Src SH2", "FALSE"],
  ["SPFAVYLFFTF [RPGRIP1_Y826_R827L_YF]", "c-Src SH2", "FALSE"],
  ["NDLMEYAKQHG [ASS1_Y163]", "c-Src SH2", "FALSE"],
  ["QEIATYRRLLE [KRT14_Y415]", "c-Src SH2", "FALSE"],
  ["TWNPKYTLRSH [STRN3_Y474]", "c-Src SH2", "TRUE"],
  ["NKVKFYIPDMN [NCR1_Y84]", "c-Src SH2", "TRUE"],
  ["RRGTGYTLPLP [MAGEC3_Y152_S155P]", "c-Src SH2", "TRUE"]
]}

# credit: the supplement of paper PMC10065799
